- Tested on: P. vulgaris No. 3
REPORTED_ENDPOINT: MIC (µg/mL)

For orientation, consider the following solved cases.
CO[C@@]1(NC(=O)C(C(=O)O)c2ccc(O)cc2)C(=O)N2C(C(=O)O)=C(CSc3nncs3)CO[C@@H]21 (stereo partly shown) [Compound (2)] ... 0.78
CO[C@@]1(NC(=O)C(C(=O)O)c2ccsc2)C(=O)N2C(C(=O)O)=C(CSc3nncs3)CO[C@@H]21 (stereo partly shown) [Compound (4)] ... 0.39

[a] CO[C@@]1(NC(=O)C(C(=O)O)c2ccc(O)cc2)C(=O)N2C(C(=O)O)=C(CSc3nnc(C)s3)CO[C@@H]21 (stereo partly shown) [Compound (1)]
[b] CO[C@@]1(NC(=O)C(C(=O)O)c2ccsc2)C(=O)N2C(C(=O)O)=C(CSc3nnc(C)s3)CO[C@@H]21 (stereo partly shown) [Compound (3)]
## Task // compare measured MIC, left a , right b , return larger When you have decided, please share the label of that item.
## Result a
(a: 0.78 µg/mL, b: 0.39 µg/mL)
